experiment: In vitro metabolism rate determination, human liver microsome (HLM) assay; assay type: in vitro ADME; details: human liver microsomes, substrate 1 μM; read-out: HLM (intrinsic clearance)
observed-property: microsomal CLint at 1 μM (µL/min/mg)
Provide the reading as a plain figure in µL/min/mg.

[[record]]
molecule = "CC1CN(C(=O)C2CN(c3ccc(=O)[nH]n3)CC2c2ccc(F)cn2)CC(C)C1(O)c1ccccc1 (stereo not drawn) [Example 37]"
unit_text = "µL/min/mg"
val = 19.5

[[record]]
molecule = "C[C@@H]1CN(C(=O)[C@@H]2CN(c3ccc(C#N)nn3)C[C@H]2c2ccc(F)cn2)C[C@H](C)[C@@]1(O)c1ccc(Cl)cc1 [Example 32]"
unit_text = "µL/min/mg"
val = 8


Could you share which microsomal CLint at 1 μM value was measured for C[C@@H]1CN(C(=O)[C@@H]2CN(c3ccc(=O)[nH]n3)C[C@H]2c2ccc(Cl)cn2)C[C@H](C)[C@@]1(O)c1ccccn1 [Example 28] ?
33

----------
target: CYP3A4 (Homo sapiens, UniProt P08684); construct: utilizes human liver microsomes together with isoform-specific clinical drug probes; from tissue; host or cells: human liver microsomes; assay: High density drug-drug interactions (DDI) 3 μM cocktail screen in human liver microsomes; assay type: in vitro ADME; conditions: 3 uM test compound, pooled human liver microsomes, probe midazolam 2 μM; read-out: % Inhibition of 3A4 metabolism at 3 uM
Sequence (P08684 whole entry, canonical isoform): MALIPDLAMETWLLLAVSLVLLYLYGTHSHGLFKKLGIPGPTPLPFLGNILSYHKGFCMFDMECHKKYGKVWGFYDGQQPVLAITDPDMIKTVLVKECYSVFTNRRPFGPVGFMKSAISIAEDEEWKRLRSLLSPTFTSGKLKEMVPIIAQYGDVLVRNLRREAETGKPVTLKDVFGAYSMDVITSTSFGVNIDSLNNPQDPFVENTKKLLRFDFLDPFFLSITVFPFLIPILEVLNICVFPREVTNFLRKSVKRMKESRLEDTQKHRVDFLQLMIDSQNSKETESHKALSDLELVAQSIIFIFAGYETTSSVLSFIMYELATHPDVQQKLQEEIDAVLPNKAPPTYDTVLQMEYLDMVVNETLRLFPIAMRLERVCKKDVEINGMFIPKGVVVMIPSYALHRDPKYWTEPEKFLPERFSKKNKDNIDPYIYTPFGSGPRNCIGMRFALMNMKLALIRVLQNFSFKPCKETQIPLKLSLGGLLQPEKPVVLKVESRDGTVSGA
observed-property: inhibition at 3 μM
Remember to follow the number with its unit.

[[record]]
molecule = "COc1ccc(N2CC(C(=O)N3CC(C)C(O)(C4CC4)C(C)C3)C(c3ccc(Cl)cn3)C2)nn1 (stereo not shown) [Example 26]"
val = "61%"

[[record]]
molecule = "CC1CN(C(=O)C2CN(c3ccc(=O)n(C)n3)CC2c2ccc(Cl)cn2)CC(C)C1(O)c1ccc(F)c(F)c1 (stereo not shown) [Example 19]"
val = "50%"

[[record]]
molecule = "CC1CN(C(=O)C2CN(c3ccc(C#N)cn3)CC2c2ccc(C#N)cn2)CC(C)C1(O)c1ccc(F)cc1 (stereo not shown) [Example 45]"
val = "69%"

[[record]]
molecule = "CC1CN(C(=O)C2CN(c3cncc(F)c3)CC2c2ccc(Cl)cn2)CC(C)C1(O)c1ccc(F)cc1 (stereo not shown) [Example 25]"
val = "16%"

[[record]]
molecule = "C[C@@H]1CN(C(=O)[C@@H]2CN(c3ccc(Cl)nn3)C[C@H]2c2ccc(F)cn2)C[C@H](C)[C@@]1(O)c1ccc(F)cc1 [Example 36]"
val = "59%"


API: the following record is the query input.
Could you share which inhibition at 3 μM value was measured for CC1CN(C(=O)C2CN(c3ccc(C#N)nn3)CC2c2ccc(Cl)cn2)CC(C)C1(O)c1ccccn1 (stereo not shown) [Example 30] ?
38%

----------
Assay: In vitro metabolism rate determination, human liver microsome (HLM) assay
Format: in vitro ADME
Details: human liver microsomes, substrate 1 μM; read-out: HLM (intrinsic clearance)
Experimental: In vitro Metabolism Rate Determination (Human Liver Microsome (HLM); Rat Liver Microsome (RLM) Assay) Many drugs are metabolised by the cytochrome P450 mono-oxygenase system. […] [formula] […] The volume of substrate required in the remaining 1.162.5 ml incubation is calculated as follows: [formula] • N.B. The volume of organic solvent added should not exceed 0.1% of the total incubation volume. […] The microsomal 4-nitroanisole O-demethylase activity is calculated as follows: Calculation of Results […]
observed-property: microsomal CLint at 1 μM (µL/min/mg)
Provide the reading as a plain figure in µL/min/mg.

[[record]]
compound = "CC1CN(C(=O)C2CN(c3ccc(=O)n(C)n3)CC2c2ccc(F)cn2)CC(C)C1(O)c1ccccc1 (stereo not shown)"
val = 95

[[record]]
compound = "COc1ccc([C@@H]2CN(c3ccc(=O)[nH]n3)C[C@H]2C(=O)N2C[C@@H](C)[C@](O)(c3ccc(Cl)cn3)[C@@H](C)C2)nc1"
val = 21

[[record]]
compound = "COc1ccc(C2(O)C(C)CN(C(=O)C3CN(c4ccc(=O)n(C)n4)CC3c3ccc(Cl)cn3)CC2C)cc1 (stereo not shown)"
val = 31

[[record]]
compound = "CC1CN(C(=O)C2CN(c3ccc(C#N)nn3)CC2c2ccc(F)cn2)CC(C)C1(O)c1ccccc1 (stereo not shown)"
val = 186


API: the following record is the query input.
Could you share which microsomal CLint at 1 μM value was measured for C[C@@H]1CN(C(=O)[C@@H]2CN(c3ccc(=O)n(C)n3)C[C@H]2c2ccc(Cl)cn2)C[C@H](C)[C@@]1(O)C1CC1 ?
67
